Tested on: pERK in ASPC1 cells
METHOD: Inhibition of KRas phosphorylation of ERK (Cisbio HTRF pERK assay)
DETAILS: Homo sapiens, ASPC1, read-out: Inhibition (HTRF IC50) of KRas-mediated Phosphorylation of ERK, AsPC-1
pIC50: −log10 of the molar value.
READOUT LABEL: pIC50

1 = CCc1c(F)ccc2cc(O)cc(-c3ncc4c(N5C[C@H](CO)OC[C@](C)(O)C5)nc(OC[C@@]56CCCN5C[C@H](F)C6)nc4c3F)c12
2 = CCc1c(F)ccc2cc(O)cc(-c3ncc4c(N5CCCOC(CO)C5)nc(OC[C@@]56CCCN5C[C@H](F)C6)nc4c3F)c12 (stereo partly drawn)
// select label with min value of measured pIC50 from [ 1 , 2 ] Please identify the chosen entry by its label.
1

====

TESTED ON: KRas G12C (Homo sapiens, UniProt P01116, G12C);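 note: binding to KRas assessed by TR-FRET displacement after one hour incubation at room temperature, potency fitted from percent-of-control values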
Sequence (P01116 1-169 isoform P01116-2 G12C): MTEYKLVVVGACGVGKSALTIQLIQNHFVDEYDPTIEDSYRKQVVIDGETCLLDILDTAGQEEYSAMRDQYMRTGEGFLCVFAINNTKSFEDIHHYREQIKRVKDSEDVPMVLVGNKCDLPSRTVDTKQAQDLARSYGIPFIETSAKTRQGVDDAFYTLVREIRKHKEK
METHOD: biochemical
READOUT LABEL: IC50 (nM)

| MOLECULE | IC50, nM |
| --- | --- |
| O=C1NC(=O)C2(CCCN(c3nc(OCC45CCCN4CCC5)nc4c(F)c(-c5cccc6cccc(Cl)c56)ncc34)C2)N1 (centres unmarked) | 16 |
| O=c1[nH][nH]cc1CNc1nc(OCC23CCCN2CCC3)nc2c(F)c(-c3cccc4cccc(F)c34)ncc12 | 10600 |

1 = CC(Nc1nc(OCC23CCCN2CCC3)nc2c(F)c(-c3cccc4cccc(F)c34)ncc12)c1c[nH]c2ncccc12 (centres unmarked)
2 = CCc1cccc2cccc(-c3ncc4c(N5CCCC6(CNC(=O)C6)C5)nc(OCC56CCCN5CCC6)nc4c3F)c12 (centres unmarked)
3 = Fc1c(-c2cccc3cccc(F)c23)ncc2c(N3C[C@@H]4CC[C@@H](C4)C3)nc(OCC34CCCN3CCC4)nc12
Kindly order the items shown according to IC50, from the highest value down. Return value: ordered labels per request.
3, 1, 2

a = Fc1c(-c2cccc3cccc(F)c23)ncc2c(NCc3ccc4nccn4c3)nc(OCC34CCCN3CCC4)nc12
b = OCc1cc2n(n1)CCCN(c1nc(OCC34CCCN3CCC4)nc3c(F)c(-c4cccc5cccc(F)c45)ncc13)C2
c = N#CC1CCCN(c2nc(OCC34CCCN3CCC4)nc3c(F)c(-c4cccc5cccc(F)c45)ncc23)CC1 (centres unmarked)
d = OC1CC2CC(C1)N(c1nc(OCC34CCCN3CCC4)nc3c(F)c(-c4cccc5cccc(Cl)c45)ncc13)C2 (centres unmarked)
Please produce an ascending ranking of these molecules based on IC50. Put the labels in the requested order and write them down.
a, d, b, c

a = O=C1NC(=O)C2(CCCN(c3nc(OCC45CCCN4CCC5)nc4c(F)c(-c5cccc6cccc(CF)c56)ncc34)C2)N1 (centres unmarked)
b = Fc1c(-c2cccc3cccc(F)c23)ncc2c(NCc3ccc4[nH]cnc4c3)nc(OCC34CCCN3CCC4)nc12
Between a and b , which one shows the smaller IC50 number? Give the chosen item's label as your response.
a

====

Tested on: pERK in HCT116 cells
METHOD: Inhibition of KRas phosphorylation of ERK (Cisbio HTRF pERK assay)
DETAILS: Homo sapiens, HCT-116, read-out: Inhibition (HTRF IC50) of KRas-mediated Phosphorylation of ERK, HCT116
READOUT LABEL: IC50 (nM)

| COMPOUND | UNIT INFO | VALUE MEASURED |
| --- | --- | --- |
| CCc1c(F)ccc2cc(O)cc(-c3ncc4c(N5CCCCCCC5)nc(OC[C@@]56CCCN5C[C@H](F)C6)nc4c3F)c12 | nM | 56 |

I = CCc1c(F)ccc2cc(O)cc(-c3ncc4c(N5CCCC6(C5)NC(=O)NC6=O)nc(OC[C@@]56CCCN5C[C@H](F)C6)nc4c3F)c12 (stereo partly drawn)
II = Oc1cc(-c2ncc3c(N4CC5CC(O)CC4C5)nc(OC[C@@]45CCCN4C[C@H](F)C5)nc3c2F)c2c(Br)c(F)ccc2c1 (stereo partly drawn)
Please state the entry with greater IC50 among I and II . Which one? Tell me its label.
II

Attribution: patent US12398154B2
